Recorded values, source patent WO2015087187A1.

# systemName: T1, recombinant human SOST (rhSOST) (human, UniProt Q9BQB4 24-213)
# T1 construct: Treated as one molecule; also called recombinant human SOST protein; human sclerostin
# T1 sequence: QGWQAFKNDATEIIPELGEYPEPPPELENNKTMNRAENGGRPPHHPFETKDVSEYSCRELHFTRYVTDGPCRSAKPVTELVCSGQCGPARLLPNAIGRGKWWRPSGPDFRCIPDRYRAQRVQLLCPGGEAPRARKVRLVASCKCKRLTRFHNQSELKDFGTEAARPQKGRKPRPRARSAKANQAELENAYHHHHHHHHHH
# protocolSummary: SPR Biacore T200, IgG captured via anti-human Fc, rhSOST analyte, 37 C
property: kon (M⁻¹ s⁻¹)
# unit: M⁻¹ s⁻¹ | format: bare number

DM22 (antibody, V domains shown, also called mH2/wt) VH: EVQLLESGGGLVQPGGSLRLSCAASGFTFTDYWMQWVRQAPGKGLEWIGAIYPGDGDTRYNQKFKDRFTISRDNSKNTLYLQMNSLRAEDTAVYYCARSMDYWGQGTLVTVSS VL: DIVMTQSPDSLAVSLGERATINCRASKTVDSYGNSFMHWFQQKPGQPPKLLIHHSSNLESGVPDRFSGSGSGTDFTLTISSLQAEDVAVYYCLQTIEDPYTFGQGTKLEIK = 1.04e+07

Okay, next one:
Which measured kon value corresponds to DM11 (antibody, V domains shown, also called wt/wt) VH: EVQLLESGGGLVQPGGSLRLSCAASGHTFTDYWMQWVRQAPGKGLEWIGAIYPGDGDTRYNQKFKDRFTISRDNSKNTLYLQMNSLRAEDTAVYYCARSMDYWGQGTLVTVSS VL: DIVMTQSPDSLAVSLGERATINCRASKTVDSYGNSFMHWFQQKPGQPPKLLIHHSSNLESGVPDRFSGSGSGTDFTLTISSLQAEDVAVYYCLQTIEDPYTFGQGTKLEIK ?
1.7e+07
